testSystem: Histone-lysine N-methyltransferase EHMT2 (Homo sapiens, UniProt Q96KQ7)
Sequence (Q96KQ7 whole entry, the tested form may be a part): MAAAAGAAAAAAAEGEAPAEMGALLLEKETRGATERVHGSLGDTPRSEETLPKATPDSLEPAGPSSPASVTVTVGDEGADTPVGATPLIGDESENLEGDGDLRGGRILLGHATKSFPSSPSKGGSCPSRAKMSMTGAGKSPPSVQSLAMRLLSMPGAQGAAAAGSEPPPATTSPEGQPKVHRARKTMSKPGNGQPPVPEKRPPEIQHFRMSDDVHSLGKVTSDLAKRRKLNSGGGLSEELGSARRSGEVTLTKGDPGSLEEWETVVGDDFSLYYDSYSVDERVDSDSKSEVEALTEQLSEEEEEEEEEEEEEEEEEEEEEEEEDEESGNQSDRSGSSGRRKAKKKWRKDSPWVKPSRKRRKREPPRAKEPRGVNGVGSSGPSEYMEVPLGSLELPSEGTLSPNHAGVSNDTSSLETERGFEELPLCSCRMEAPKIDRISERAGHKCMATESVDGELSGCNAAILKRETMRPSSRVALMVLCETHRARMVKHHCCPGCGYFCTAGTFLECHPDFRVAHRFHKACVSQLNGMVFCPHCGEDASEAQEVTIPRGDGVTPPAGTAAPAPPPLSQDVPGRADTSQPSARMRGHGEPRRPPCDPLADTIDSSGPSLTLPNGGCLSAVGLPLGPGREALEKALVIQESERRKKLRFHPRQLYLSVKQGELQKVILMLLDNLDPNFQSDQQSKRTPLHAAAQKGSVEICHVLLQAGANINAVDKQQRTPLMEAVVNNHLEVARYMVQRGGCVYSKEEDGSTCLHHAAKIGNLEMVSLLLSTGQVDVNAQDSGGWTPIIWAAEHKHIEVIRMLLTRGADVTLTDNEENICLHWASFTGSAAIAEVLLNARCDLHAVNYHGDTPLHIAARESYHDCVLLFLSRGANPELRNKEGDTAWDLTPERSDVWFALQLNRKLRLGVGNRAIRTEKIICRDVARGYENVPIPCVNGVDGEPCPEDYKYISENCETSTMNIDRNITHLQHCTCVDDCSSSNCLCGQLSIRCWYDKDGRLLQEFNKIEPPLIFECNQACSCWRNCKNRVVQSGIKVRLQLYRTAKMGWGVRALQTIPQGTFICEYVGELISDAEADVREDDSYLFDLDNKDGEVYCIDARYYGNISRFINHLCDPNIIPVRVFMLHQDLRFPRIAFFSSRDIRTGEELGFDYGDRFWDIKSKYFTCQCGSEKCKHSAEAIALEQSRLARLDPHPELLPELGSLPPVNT
assayOverview: Inhibition of recombinant G9a catalytic SET domain (913 to 1193 residues) (unknown origin) expressed in Escherichia coli BL21 (DE3) codon plus RIL assessed as inhibition of methylation activity using biotin-labeled H3 (1 to 25 residues) as substrate and [3H]-SAM after 2 hrs by scintillation proximity assay
valueKind: IC50 (µM)

1. COc1cc2c(NC3CCN(C)CC3)nc(N3CCOCC3)nc2cc1C | 1.15
2. COc1cc2nc(N3CCOCC3)nc(NC3CCN(C(C)C)CC3)c2cc1OC | 0.262
3. COc1cc2nc(N3CCCC3)nc(NC3CCN(C)CC3)c2cc1OC | 0.313
4. COc1cc2nc(N3CCOCC3)nc(NC3CCN(C4CC4)CC3)c2cc1OC | 0.313
5. CCCCNc1nc(NC2CCN(C)CC2)c2cc(OC)c(OC)cc2n1 | 0.436

a = COc1cc2nc(N3CCCCCC3)nc(NC3CCN(C)CC3)c2cc1OC
b = COc1cc2nc(N3CCC(F)(F)CC3)nc(NC3CCN(C)CC3)c2cc1OC
c = COc1cc2nc(N3CCCCC3)nc(NC3CCN(C)CC3)c2cc1OC
Q: Write the entries in order, lowest recorded IC50 first. Returns: the labels listed in the requested order.
Ans: c, a, b
